# reported Kd; entries follow
TARGET: Quadruplex DNA
ASSAY_OVERVIEW: Binding affinity to pre-annealed k-RAS G-quadruplex (unknown origin) in 100 mM KCl, 10 mM Tris.HCl at pH 7.4 by fluorescence spectroscopy relative to untreated control
Assay type: nucleic-acid assay, unidentified

CN(C)CCCn1cc(CNC(=O)c2ccc(Nc3ccc(-c4ccc(Nc5ccc(C(=O)NCc6cn(CCCN(C)C)nn6)cc5)c5ccccc45)c4ccccc34)cc2)nn1
11.4 to 13.8 µM

Now for another entry.
Can you look up the measured Kd of CN(C)CCCNC(=O)c1ccc(Nc2ccc(-c3ccc(Nc4ccc(C(=O)NCCCN(C)C)cc4)c4ccccc34)c3ccccc23)cc1 for me?
13 µM

---

Entries and their Kd values follow.
TARGET: Quadruplex DNA
ASSAY_OVERVIEW: Binding affinity to pre-annealed c-KIT2 G-quadruplex (unknown origin) in 100 mM KCl, 10 mM Tris.HCl at pH 7.4 by fluorescence spectroscopy relative to untreated control
Assay type: nucleic-acid assay, unidentified
Form entry: value (µM) — number only.

CN(C)CCCn1cc(CNC(=O)c2ccc(Nc3ccc(-c4ccc(Nc5ccc(C(=O)NCc6cn(CCCN(C)C)nn6)cc5)c5ccccc45)c4ccccc34)cc2)nn1
11.1

# query: Kd | item CN(C)CCCNC(=O)c1ccc(Nc2ccc(-c3ccc(Nc4ccc(C(=O)NCCCN(C)C)cc4)c4ccccc34)c3ccccc23)cc1 | system: Quadruplex DNA
14.1

---

TARGET: Quadruplex DNA
ASSAY_OVERVIEW: Binding affinity to pre-annealed c-MYC G-quadruplex (unknown origin) in 10 mM Tris.HCl buffer containing 100 mM KCl at pH 7.4 by UV/Visible spectroscopy
Format: nucleic-acid assay, unidentified
ENDPOINT_NAME: pKd
Please treat pKd as minus the base-10 logarithm of the molar concentration.

CN(C)CCCn1cc(CNC(=O)c2ccc(Nc3ccc(-c4ccc(Nc5ccc(C(=O)NCc6cn(CCCN(C)C)nn6)cc5)c5ccccc45)c4ccccc34)cc2)nn1
5.36

# ---- query molecule ----
Give the measured pKd of CN(C)CCCNC(=O)c1ccc(Nc2ccc(-c3ccc(Nc4ccc(C(=O)NCCCN(C)C)cc4)c4ccccc34)c3ccccc23)cc1 .
4.65
